# METHOD: binders from COS7 lysate, DM2A8 probe, primary screen, torsin A project, cell lysate, small-molecule microarray, fluorescence 635/667 (AID 1065)
# CONDITION_INFO: higher = more signal, COS7 lysate expressing mutant human TOR1A
I would appreciate it if you labelled entries MET when composite z-score is 0.04 or higher, otherwise NOT MET.

COMPOUND | ANSWER_LABEL
O=C(O)[C@@]1(Cc2ccccc2)COC(c2ccc(OCCCO)cc2)=N1 | NOT MET
COCCCNC(=O)[C@@]1(Cc2ccccc2CN=[N+]=[N-])N=C(c2ccc(OCCCO)cc2)O[C@H]1c1ccccc1N=[N+]=[N-] | MET
CCN(CC)c1ccc(N2CC=CC34O[C@@H]5/C=C\CCCOC(=O)C5[C@H]3C(=O)N(CCCCCCO)[C@@H]4C2=O)cc1 (stereo partly drawn) | NOT MET
CC(C)NC(=O)[C@@H]1c2ccccc2C(=O)N(Cc2cc(C(F)(F)F)cc(C(F)(F)F)c2)[C@H]1c1ccc(CO)cc1 | MET
COC(=O)[C@@]1(Cc2ccccc2)[C@H]2c3cc(C(=O)N4CCCC4)n(CCO)c3C[C@H]2CN1C(=O)c1ccccc1 | MET
CCCCC(CC)C(O)C1C=CC2C(=O)NC(=O)C2N1Nc1ccccn1 (stereo not drawn) | NOT MET
CC1=C2[C@@H](CCc3ccccc3)OB(O)C[C@@H]2[C@@H]2C(=O)C=CC(=O)[C@@H]2C1 | MET

====

In this section, each of the compounds is paired with its reported z-score.
# METHOD: JC-1 mitochondrial signal, unstimulated adipocytes – cell-based, JC-1 fluorescence, 3T3-L1 adipocytes, 24 h, 100 nL compound, profiling panel (AID 1168); further: test concentration not given here
# CONDITION_INFO: JC-1 mitochondrial fluorescence, higher = more signal, called active from +8 up or from −8 down
Activity calls are given as the source filed them.

COMPOUND | z-score
COC(=O)c1ccc(OC)c(/C=C\CC(CCc2ccccc2)OC(=O)c2ccncc2)c1 (centres undefined) | -1.32 (inactive)
COC(=O)C(CC#Cc1ccc2c(c1)[C@]1(C(=O)N2)[C@H](C(=O)N2CCc3cc(OC)c(OC)cc3C2)[C@H]2C(=O)O[C@H](c3ccccc3)[C@H](c3ccccc3)N2[C@@H]1c1ccc(O)cc1)C(=O)OC | 0.604 (inactive)
CN(C)C(=O)[C@@]1(Cc2ccccc2N=[N+]=[N-])N=C(c2ccc(OCCCO)cc2)O[C@H]1c1ccccc1N=[N+]=[N-] | 0.918 (inactive)
COCCCNC(=O)[C@@]1(Cc2ccccc2CN=[N+]=[N-])N=C(c2ccc(OCCCO)cc2)O[C@H]1c1ccccc1N=[N+]=[N-] | 1.98 (inactive)
COc1ccccc1CN1C(=O)c2ccccc2[C@@H](C(=O)NCC(C)C)[C@@H]1c1ccc(CO)cc1 | -1.09 (inactive)
COc1ccc([Si](C)(C)[C@@H]2[C@@H](CC(=O)N(CCO)Cc3ccccc3)O[C@]3(C(=O)N(C)c4c(Br)cc(C)cc43)[C@H]2C)cc1 | -0.68 (inactive)
CC(C)C(CO)N1C(=O)[C@@H]2[C@H]3C(=O)OCC=C[C@H]3OC23C=CCN(CCN2CCOCC2)C(=O)[C@@H]13 (some centres undefined) | -0.648 (inactive)
Cc1ccc(C(C)CC(O)C2C=CC3C(=O)N(Cc4ccccc4)C(=O)C3N2n2cnnc2)o1 (centres undefined) | -1.24 (inactive)
COC(=O)C(CC#Cc1ccc2c(c1)[C@]1(C(=O)N2)[C@H](c2ccccc2OCCO)N2[C@H](c3ccccc3)[C@H](c3ccccc3)OC(=O)[C@H]2[C@@H]1C(=O)Nc1nc2ccccc2s1)C(=O)OC | -0.00705 (inactive)
COc1ccc([Si](C)(C)[C@@H]2[C@@H](CC(=O)N(CCO)Cc3ccccc3)O[C@]3(C(=O)N(Cc4ccc(N5CCOC5=O)cc4)c4ccccc43)[C@H]2C)cc1 | 1.19 (inactive)
CCCCC(O)C1C=CC2C(=O)N(Cc3ccccc3)C(=O)C2N1n1cnnc1 (centres undefined) | -0.942 (inactive)
CCCN1C(=O)[C@@H]2Cc3c([nH]c4ccccc34)[C@@H](c3cccc(O)c3)N2C1=O | 0.137 (inactive)
CCOC(=O)C[C@H]1[C@H](OC(=O)Cc2ccc3c(c2)OCO3)[C@@H](NC(=O)c2ccccc2)c2cc(OCCCO)ccc2N1C(=O)c1ccc2ccccc2n1 | 0.607 (inactive)
COC(=O)[C@@]1(Cc2ccccc2N=[N+]=[N-])N=C(c2ccc(OCCCO)cc2)O[C@H]1c1ccccc1 | -0.138 (inactive)
